Target: HCV NS3 protease (UniProt P26663)
Sequence (P26663 1027-1206, other chains not shown): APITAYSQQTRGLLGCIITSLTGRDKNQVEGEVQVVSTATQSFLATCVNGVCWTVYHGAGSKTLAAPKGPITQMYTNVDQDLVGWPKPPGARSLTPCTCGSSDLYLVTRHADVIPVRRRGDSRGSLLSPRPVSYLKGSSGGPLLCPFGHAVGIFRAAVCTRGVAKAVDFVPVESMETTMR
Format: biochemical, HCV genotype 1b
Set-up: rows headed: IC50 (μM); IC50 (μM)
Conditions: Table 3
Reported IC50 values follow for various compounds
measurement type: IC50

>>> result("C=C[C@H]1C[C@]1(NC(=O)[C@@H]1C[C@@H](Oc2ccnc3ccccc23)CN1C(=O)[C@@H](NC(=O)OC(C)(C)C)C1CCCCC1)C(=O)O")
"0.8 µM"
>>> result("C=C[C@H]1C[C@]1(NC(=O)[C@@H]1CC(Oc2cc(-c3ccccc3)nc3ccc([N+](=O)[O-])cc23)CN1C(=O)[C@@H](NC(=O)OC(C)(C)C)C1CCCCC1)C(=O)O (some centres unmarked)")
"0.27 µM"
>>> result("C=C[C@H]1C[C@]1(NC(=O)[C@@H]1C[C@@H](Oc2ccc3ccccc3c2)CN1C(=O)[C@@H](NC(=O)OC(C)(C)C)C1CCCCC1)C(=O)O")
"5 µM"
>>> result("C=C[C@H]1C[C@]1(NC(=O)[C@@H]1C[C@@H](Oc2cccc3ccccc23)CN1C(=O)[C@@H](NC(=O)OC(C)(C)C)C1CCCCC1)C(=O)O")
"1.6 µM"
>>> result("CC[C@H]1C[C@]1(NC(=O)[C@@H]1C[C@@H](OCc2cccc3ccccc23)CN1C(=O)[C@@H](NC(=O)OCC(C)C)C1CCCCC1)C(=O)O")
"11 µM"
>>> result("CCC1CC1(NC(=O)C1CC(OCc2cccc3ccccc23)CN1C(=O)C(NC(=O)OC(C)(C)C)C1CCCCC1)C(=O)O (centres unmarked)")
"7.7 µM"
>>> result("C=C[C@H]1C[C@]1(NC(=O)[C@@H]1C[C@@H](OCc2cccc3ccccc23)CN1C(=O)[C@@H](NC(=O)OC(C)(C)C)C1CCCCC1)C(=O)O")
"3.2 µM"
>>> result("CC[C@H]1C[C@]1(NC(=O)[C@@H]1C[C@@H](OCc2cccc3ccccc23)CN1C(=O)[C@@H](NC(=O)OCC(C)C)C(C)C)C(=O)O")
"12.5 µM"
